assay: in vivo; settings: inhaled or intranasal
EXPERIMENTAL_READOUT: concentration at 25 min (ng/g)
The response must be a number in ng/g with no trailing unit.

Q) Returns the measured concentration at 25 min for the input compound. Input: Cc1cc(C)nc(NS(=O)(=O)c2ccc(N)cc2)n1 [sulfamethazine]
A) 100
